target: T1, Recombinant human TSLP-his (human, UniProt Q969D9 29-159); test: SPR, Biacore T200; TSLP-his amine-coupled to CM5 chip, antibody as analyte; 1:1 Langmuir fit
T1 construct: Prepared in-house; Amine-coupled to CM5 chip in SPR, loaded on APS sensors in Octet, biotin-labeled in the capture ELISA, unlabeled in the cell functional assays; also called human TSLP-his protein
pKd: −log10 of the molar value.
ENDPOINT: pKd

These recorded examples may help you get a feel for the data.
BINDER	VAL
1G3B9B1 (antibody, V domains shown, Mouse hybridoma mAb) VH: QVQLQQPGTELVKPGASVKMSCKASGYTFTTYWMHWVKQRPGQGLEWIGVIDPSDSDTTYNQKFKGKATLTVDTSSSTAYMQLSSLTSEDSAVYYCTRSLDGYYDYWGQGTTLTVSS VL: DIQMTQSPASLSASVGETVTITCRPTENIYSYLAWYQQKQGKSPHLLVYFARTLAEGVPSRFSGSGSGTQFSLKINSLQPEDFGIYYCQHHYGTPWTFGGGTKLEIK	> 9.97
Mouse D1D8H9F7 (antibody, V domains shown, Mouse hybridoma mAb) VH: QVQLQQSGADLVRPGSSVKISCKTSGFAFSSYYMNWVKQRPGQGLEWIGQIYPGDGETNYNGKFKDKATLTADKSSSTVYMQLSSLTSEDSAVYFCARAGYSDYVYAMDYWGQGTSVTVSS VL: EIVLTQSPALMAASPGEKVTIICSVSSSITSSNLHWYQQKSETSPKPWIYGTSNLASGVPVRFSGSGSGTSYSLTISSMEAEDAATYYCQQWSSFPLTFGSGTKLEIK	9.74
1G2H12A1 (antibody, V domains shown, Mouse hybridoma mAb) VH: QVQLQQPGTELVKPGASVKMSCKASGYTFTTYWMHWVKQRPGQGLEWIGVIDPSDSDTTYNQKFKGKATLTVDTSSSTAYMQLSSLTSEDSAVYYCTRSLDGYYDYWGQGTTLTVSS VL: DIQMTQSPASLSASVGETVTITCRPTENIYSYLAWYQQKQGKSPHLLVYFARTLAEGVPSRFSGSGSGTQFSLKINSLQPEDFGIYYCQHHYGTPWTFGGGTKLEIK	> 9.93

// next item, pKd requested
Fill in the blank: the reported pKd of 1F5H12D7 (antibody, V domains shown) VH: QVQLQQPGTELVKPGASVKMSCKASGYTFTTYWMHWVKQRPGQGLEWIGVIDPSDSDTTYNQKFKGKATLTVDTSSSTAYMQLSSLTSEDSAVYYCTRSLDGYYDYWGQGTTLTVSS VL: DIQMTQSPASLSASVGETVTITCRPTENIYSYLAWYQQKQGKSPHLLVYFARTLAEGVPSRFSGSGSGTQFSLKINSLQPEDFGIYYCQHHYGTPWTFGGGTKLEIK is ____.
> 9.95
